Tested on: OVCAR-4 ovarian
protocol: NCI tumour cell line growth inhibition, 48 h
Assignment: determine reported TGI for the given compounds.

Asked: Specify reported TGI for the compound shown: `O=c1[nH]c2cc3cccnc3c(Cl)c2nc1CBr`
Given back: 34.2 µM

Asked: Give the reported TGI for this compound. CCN(CC)CCCC(C)Nc1c(Sc2cnc3cc(Cl)ccc3c2NC(C)CCCN(CC)CC)cnc2cc(Cl)ccc12 (stereo unspecified)
Given back: 3.22 µM

Asked: # return recorded TGI for input `COC1=CC(=O)c2c(O)c3c(c(O)c2C1=O)C[C@](C)(O)C[C@@H]3O`
Given back: 13.1 µM

Asked: Identify the reported TGI for the following entry. `C=CC(C)(C)c1cc([C@@H]2COc3cc(O)ccc3C2=O)c(O)c(O)c1OC`
Given back: 34.2 µM

Asked: Return value of TGI for input `CC(=O)[CH-]C(=O)Nc1ccccc1.CC(=O)[CH-]C(=O)Nc1ccccc1.CC[O-].CC[O-].[Ti+4]` , no commentary.
Given back: > 100 µM

Asked: Please give the documented TGI of `CCCCCn1c(=O)c2c(=O)[nH][nH]c2c2ccccc21`
Given back: > 100 µM
